# assay-target: recombinant human Bcl-2 D103Y protein (Homo sapiens (Human), UniProt P10415, D103Y)
# Sequence (P10415 whole entry D103Y): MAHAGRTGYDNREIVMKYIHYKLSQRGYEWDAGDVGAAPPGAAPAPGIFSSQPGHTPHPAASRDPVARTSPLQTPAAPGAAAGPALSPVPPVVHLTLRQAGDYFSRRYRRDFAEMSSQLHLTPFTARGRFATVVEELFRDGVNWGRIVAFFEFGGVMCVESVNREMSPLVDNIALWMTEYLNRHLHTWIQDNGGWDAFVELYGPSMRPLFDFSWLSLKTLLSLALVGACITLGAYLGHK
# assay-protocol: Bcl-2-D103Y Biochemical Assay (TR-FRET)
# conditions-used: TR-FRET, FITC labeled Bak peptide
# if measured IC50 < 0.4 nM: met  # else: not met

Solved cases below.
| compound | assay-target | label-class |
| --- | --- | --- |
| CCc1ccc(CN2CCN(C3CC4(C3)CN(c3ccc(C(=O)NS(=O)(=O)c5ccc(NC[C@H]6CC[C@](C)(O)CC6)c([N+](=O)[O-])c5)c(Oc5cnc6[nH]cc(F)c6c5)c3)C4)[C@H](c3ccccc3C(C)C)C2)cc1OC [Example 268] | recombinant human Bcl-2 D103Y protein (Homo sapiens (Human), UniProt P10415, D103Y) | not met |
| C#Cc1ccc(CN2CCN(C3CC4(CCN(c5ccc(C(=O)NS(=O)(=O)c6ccc(NC[C@H]7CC[C@](C)(O)CC7)c([N+](=O)[O-])c6)c(Oc6cnc7[nH]ccc7c6)c5)CC4)C3)C(c3ccccc3C(C)C)C2)cc1OC (stereo partly drawn) [Example 162] | recombinant human Bcl-2 D103Y protein (Homo sapiens (Human), UniProt P10415, D103Y) | not met |
| COc1cc(CN2CCN(C3CC4(CCN(c5ccc(C(=O)NS(=O)(=O)c6ccc(NC[C@H]7CC[C@](C)(O)CC7)c([N+](=O)[O-])c6)c(Oc6cnc7[nH]cc(F)c7c6)c5)CC4)C3)[C@H](c3ccccc3C(C)C)C2)cc2c1OCC2 [Example 303] | recombinant human Bcl-2 D103Y protein (Homo sapiens (Human), UniProt P10415, D103Y) | met |
| CC(C)c1ccccc1C1CN(Cc2ccc(F)cc2)CCN1C1CC2(CCN(c3ccc(C(=O)NS(=O)(=O)c4ccc(NC[C@H]5CC[C@](C)(O)CC5)c([N+](=O)[O-])c4)c(Oc4cnc5[nH]ccc5c4)c3)CC2)C1 (stereo partly drawn) [Example 28] | recombinant human Bcl-2 D103Y protein (Homo sapiens (Human), UniProt P10415, D103Y) | met |

Task item: Please indicate whether the reported IC50 of [2H]C([2H])([2H])Oc1cc(CN2CCN(C3CC4(C3)CN(c3ccc(C(=O)NS(=O)(=O)c5ccc(NC[C@H]6CC[C@](C)(O)CC6)c([N+](=O)[O-])c5)c(Oc5cnc6[nH]ccc6c5)c3)C4)[C@H](c3ccccc3C(C)C)C2)cc2ccoc12 [Example 323] is strictly below 0.4 nM.
Reply: met

Task item: Please indicate whether the reported IC50 of COc1ccc(CN2CCN(C3CC4(CCN(c5ccc(C(=O)NS(=O)(=O)c6ccc(NC[C@H]7CC[C@](C)(O)CC7)c([N+](=O)[O-])c6)c(Oc6cnc7[nH]ccc7c6)c5)CC4)C3)[C@H](c3ccccc3C(C)C)C2)cc1 [Example 19a] is strictly below 0.4 nM.
Reply: met

Task item: Please indicate whether the reported IC50 of COCCN1CCN(C2CC3(CCN(c4ccc(C(=O)NS(=O)(=O)c5cc6c(c([N+](=O)[O-])c5)N[C@H](C[C@H]5CC[C@H](O)CC5)CO6)c(Oc5cnc6[nH]ccc6c5)c4)CC3)C2)C(c2ccccc2C(C)C)C1 (stereo partly drawn) [Example 14] is strictly below 0.4 nM.
Reply: met

Task item: Please indicate whether the reported IC50 of COc1cc(CN2CCN(C3CC4(C3)CN(c3ccc(C(=O)NS(=O)(=O)c5ccc(NC[C@H]6CC[C@](C)(O)CC6)c([N+](=O)[O-])c5)c(Oc5cnc6[nH]ccc6c5)c3)C4)[C@H](c3ccccc3C(C)C)C2)ccc1C1CC1 [Example 233] is strictly below 0.4 nM.
Reply: not met

Task item: Please indicate whether the reported IC50 of CC(C)c1ccccc1[C@@H]1CN(Cc2ccc(C3CCOC3)cc2)CCN1C1CC2(C1)CN(c1ccc(C(=O)NS(=O)(=O)c3ccc(NCC4CCC(C)(O)CC4)c([N+](=O)[O-])c3)c(Oc3cnc4[nH]cc(F)c4c3)c1)C2 (stereo partly drawn) [Example 371] is strictly below 0.4 nM.
Reply: met

Task item: Please indicate whether the reported IC50 of COc1ccc(N(C)C2CCN(C3CC4(CCN(c5ccc(C(=O)NS(=O)(=O)c6ccc(NC[C@H]7CC[C@](C)(O)CC7)c([N+](=O)[O-])c6)c(Oc6cnc7[nH]ccc7c6)c5)CC4)C3)C(c3ccccc3C(C)C)C2)cc1 (stereo partly drawn) [Example 150] is strictly below 0.4 nM.
Reply: not met

Task item: Please indicate whether the reported IC50 of COc1cc(CN2CCN(C3CC4(C3)CN(c3ccc(C(=O)NS(=O)(=O)c5ccc(NC[C@H]6CC[C@](C)(O)CC6)c([N+](=O)[O-])c5)c(Oc5cnc6[nH]cc(F)c6c5)c3)C4)[C@H](c3ccccc3C(C)C)C2)ccc1OC(C)C [Example 349] is strictly below 0.4 nM.
Reply: met

Task item: Please indicate whether the reported IC50 of [2H]C([2H])([2H])Oc1cc(CN2CCN(C3CC4(C3)CN(c3ccc(C(=O)NS(=O)(=O)c5ccc(NC[C@H]6CC[C@](C)(O)CC6)c([N+](=O)[O-])c5)c(Oc5cnc6[nH]cc(F)c6c5)c3)C4)[C@H](c3ccccc3C(C)C)C2)cc2ccoc12 [Example 322] is strictly below 0.4 nM.
Reply: met

Task item: Please indicate whether the reported IC50 of COc1ccc(CN2CCN(C3CC4(CCN(c5ccc(C(=O)NS(=O)(=O)c6ccc(NC[C@H]7CC[C@](C)(O)CC7)c([N+](=O)[O-])c6)c(Oc6cnc7[nH]ccc7c6)c5)CC4)C3)C(c3ccccc3C(C)C)C2)cc1C (stereo partly drawn) [Example 144] is strictly below 0.4 nM.
Reply: not met

Task item: Please indicate whether the reported IC50 of COc1cc(CN2CCN(C3CC4(CCN(c5ccc(C(=O)NS(=O)(=O)c6ccc(NC[C@H]7CC[C@](C)(O)CC7)c([N+](=O)[O-])c6)c(Oc6cnc7[nH]cc(F)c7c6)c5)CC4)C3)[C@H](c3ccccc3C(C)C)C2)cc2ccoc12 [Example 281] is strictly below 0.4 nM.
Reply: not met

Task item: Please indicate whether the reported IC50 of CC(C)c1ccccc1[C@@H]1CN(Cc2ccc(F)c(F)c2)CCN1C1CC2(CCN(c3ccc(C(=O)NS(=O)(=O)c4ccc(NC[C@H]5CC[C@](C)(O)CC5)c([N+](=O)[O-])c4)c(Oc4cnc5[nH]ccc5c4)c3)CC2)C1 (single isomer, unassigned) [Example 52a] is strictly below 0.4 nM.
Reply: met
